# Tgt: T-type calcium channel (Homo sapiens)
# Sequence (O95180 whole entry): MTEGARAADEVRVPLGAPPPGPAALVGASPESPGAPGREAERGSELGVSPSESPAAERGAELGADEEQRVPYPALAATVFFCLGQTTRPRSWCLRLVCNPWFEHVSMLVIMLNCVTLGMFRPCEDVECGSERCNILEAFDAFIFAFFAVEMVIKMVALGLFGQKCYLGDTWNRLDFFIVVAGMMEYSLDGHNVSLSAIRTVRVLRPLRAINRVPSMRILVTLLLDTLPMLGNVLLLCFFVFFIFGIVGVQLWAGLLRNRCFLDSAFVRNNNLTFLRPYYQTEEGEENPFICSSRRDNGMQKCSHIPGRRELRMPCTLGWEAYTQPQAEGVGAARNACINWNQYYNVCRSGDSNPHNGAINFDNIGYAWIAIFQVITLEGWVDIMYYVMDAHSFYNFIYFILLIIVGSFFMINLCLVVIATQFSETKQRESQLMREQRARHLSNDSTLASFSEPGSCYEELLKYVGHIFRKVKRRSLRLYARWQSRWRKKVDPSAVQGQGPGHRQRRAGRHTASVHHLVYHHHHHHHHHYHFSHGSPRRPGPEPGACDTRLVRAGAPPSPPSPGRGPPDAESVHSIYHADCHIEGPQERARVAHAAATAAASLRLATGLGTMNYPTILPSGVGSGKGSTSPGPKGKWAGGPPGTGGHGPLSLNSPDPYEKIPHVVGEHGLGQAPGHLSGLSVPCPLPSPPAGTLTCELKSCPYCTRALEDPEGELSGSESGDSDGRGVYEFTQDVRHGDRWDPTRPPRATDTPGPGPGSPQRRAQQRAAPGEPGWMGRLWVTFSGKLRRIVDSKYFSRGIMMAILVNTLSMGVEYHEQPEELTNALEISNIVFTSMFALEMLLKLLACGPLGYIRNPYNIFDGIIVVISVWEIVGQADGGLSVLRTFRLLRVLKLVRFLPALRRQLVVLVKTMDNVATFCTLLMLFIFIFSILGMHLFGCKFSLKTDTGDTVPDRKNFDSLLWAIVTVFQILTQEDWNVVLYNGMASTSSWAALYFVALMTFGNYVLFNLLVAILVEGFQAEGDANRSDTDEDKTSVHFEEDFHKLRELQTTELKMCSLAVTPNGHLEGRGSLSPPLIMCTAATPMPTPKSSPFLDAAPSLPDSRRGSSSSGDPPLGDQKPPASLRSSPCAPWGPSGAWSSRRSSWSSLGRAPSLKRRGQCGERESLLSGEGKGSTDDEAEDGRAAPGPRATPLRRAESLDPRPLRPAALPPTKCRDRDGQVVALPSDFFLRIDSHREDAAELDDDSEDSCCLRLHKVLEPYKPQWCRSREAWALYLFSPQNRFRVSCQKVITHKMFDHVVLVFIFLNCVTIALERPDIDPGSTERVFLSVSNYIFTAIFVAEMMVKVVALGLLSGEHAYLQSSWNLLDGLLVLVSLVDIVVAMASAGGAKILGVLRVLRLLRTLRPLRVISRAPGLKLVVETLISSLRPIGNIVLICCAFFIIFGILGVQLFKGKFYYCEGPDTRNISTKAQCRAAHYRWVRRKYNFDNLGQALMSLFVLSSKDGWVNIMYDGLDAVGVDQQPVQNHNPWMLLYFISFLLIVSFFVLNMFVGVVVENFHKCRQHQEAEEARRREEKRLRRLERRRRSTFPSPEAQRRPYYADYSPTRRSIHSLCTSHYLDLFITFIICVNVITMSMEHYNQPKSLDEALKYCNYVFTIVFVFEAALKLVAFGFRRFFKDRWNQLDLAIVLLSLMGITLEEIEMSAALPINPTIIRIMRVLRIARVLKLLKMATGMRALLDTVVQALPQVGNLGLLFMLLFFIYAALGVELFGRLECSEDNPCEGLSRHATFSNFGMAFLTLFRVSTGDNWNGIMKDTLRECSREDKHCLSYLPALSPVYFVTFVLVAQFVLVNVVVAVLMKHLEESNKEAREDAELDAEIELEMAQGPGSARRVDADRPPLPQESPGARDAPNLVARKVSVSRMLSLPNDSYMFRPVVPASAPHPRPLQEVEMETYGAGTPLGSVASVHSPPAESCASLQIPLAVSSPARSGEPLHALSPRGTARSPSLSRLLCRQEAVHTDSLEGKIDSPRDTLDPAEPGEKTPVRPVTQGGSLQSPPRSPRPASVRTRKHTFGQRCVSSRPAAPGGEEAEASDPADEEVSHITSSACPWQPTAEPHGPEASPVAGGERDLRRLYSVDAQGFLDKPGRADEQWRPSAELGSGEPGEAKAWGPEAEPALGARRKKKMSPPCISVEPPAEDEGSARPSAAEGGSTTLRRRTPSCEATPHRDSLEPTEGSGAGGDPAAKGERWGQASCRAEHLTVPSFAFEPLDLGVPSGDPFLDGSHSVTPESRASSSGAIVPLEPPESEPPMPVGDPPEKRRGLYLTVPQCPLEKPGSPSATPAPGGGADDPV
# Assay Overview: T-type channel blocking, FLIPR data (Table 6)
# Assay type: cell-based
# Test Settings: CAv3.2, inactivated state, read-out: CAv3.2 IC50 Inact.
pIC50: −log10 of the molar value.
Measure: pIC50

[
  {
    "Smiles Record": "CC(C)(C[C@H]1C[C@@H](NC(=O)c2ccc(OCC(F)(F)F)nc2)C1)S(=O)(=O)c1cccc(C(F)(F)F)c1",
    "Measure": "pIC50",
    "Result Number": 6.28
  },
  {
    "Smiles Record": "CS(=O)(=O)c1cc(C(F)(F)F)cnc1C(=O)NC[C@H]1C[C@H](S(=O)(=O)c2cc(F)cc(C(F)(F)F)c2)C1",
    "Measure": "pIC50",
    "Result Number": 5.00
  },
  {
    "Smiles Record": "CC(C)([C@H]1C[C@@H](NS(=O)(=O)c2ccc(C(F)(F)F)nc2)C1)S(=O)(=O)c1cccc(C(F)(F)F)c1",
    "Measure": "pIC50",
    "Result Number": 5.47
  }
]

Measured values drawn from patent US20120245137A1 for this set.
